# Test system: Brachyury
# PROCEDURE DETAILS: Immunofluorescence staining of Brachyury in ES-D3 cells
# Type: cell-based, mouse
# CONDITION CONTEXT: Mus musculus, 72 h, read-out: EC50 (Brachyury-positive cells)
PARAMETER MEASURED: EC50 (µM)
Respond numerically; units are µM and should not be typed.

Per the records, this compound ( Cc1c[nH]c(-c2cnc(NCCNc3ccc(C#N)cn3)nc2-c2ccc(Cl)cc2Cl)n1 ) has EC50 equal to 3.19

Recorded values, source paper PMC4008422.
